Values compiled from patent US20250214969A1.

# Tgt: truncated His-MBP-Tev-KLHDC2 (residues 1-363) (Homo sapiens, UniProt Q9Y2U9)
# Construct: truncated His -MBP-Tev-KLHDC2 (residues 1-363) purified from E. coli; made in house; host or cells: E. coli
# Sequence (Q9Y2U9 1-363): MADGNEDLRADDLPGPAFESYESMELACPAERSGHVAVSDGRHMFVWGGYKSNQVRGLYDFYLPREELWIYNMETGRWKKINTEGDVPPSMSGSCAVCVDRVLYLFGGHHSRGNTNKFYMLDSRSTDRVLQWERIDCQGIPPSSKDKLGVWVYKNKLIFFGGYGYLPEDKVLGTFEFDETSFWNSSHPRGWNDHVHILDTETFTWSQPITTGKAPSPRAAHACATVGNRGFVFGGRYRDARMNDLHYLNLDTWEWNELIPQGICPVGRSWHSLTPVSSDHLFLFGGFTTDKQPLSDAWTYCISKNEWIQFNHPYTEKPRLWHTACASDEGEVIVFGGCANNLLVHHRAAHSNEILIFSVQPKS
# Method: KLHDC2 FP competition binding assay
# Experimental conditions: 15 nM KLHDC2 (residues 1-363), 10 nM fluorescein-labeled diglycine peptide probe, read-out: KLHDC2 binding Human FP: average external IC50
Listed here are molecules together with their documented IC50.

Solved cases (2 shown):
Structure as smiles | IC50
Nc1ccc(-c2ccc(=O)n(CC(=O)O)c2)cn1 | > 5 µM
COc1c(F)cc(-c2ccc(=O)n(CC(=O)O)c2)cc1F | > 5 µM

The molecule listed as "O=C(O)CCn1cc(NC(=O)c2cccc(-c3cccnc3)c2)ccc1=O" shows IC50 equal to > 5 µM

---

# Tgt: truncated His-MBP-Tev-KLHDC2 (residues 1-363) (Homo sapiens)
# Construct: truncated His -MBP-Tev-KLHDC2 (residues 1-363) purified from E. coli; made in house; host or cells: E. coli
# Sequence (Q9Y2U9 1-363): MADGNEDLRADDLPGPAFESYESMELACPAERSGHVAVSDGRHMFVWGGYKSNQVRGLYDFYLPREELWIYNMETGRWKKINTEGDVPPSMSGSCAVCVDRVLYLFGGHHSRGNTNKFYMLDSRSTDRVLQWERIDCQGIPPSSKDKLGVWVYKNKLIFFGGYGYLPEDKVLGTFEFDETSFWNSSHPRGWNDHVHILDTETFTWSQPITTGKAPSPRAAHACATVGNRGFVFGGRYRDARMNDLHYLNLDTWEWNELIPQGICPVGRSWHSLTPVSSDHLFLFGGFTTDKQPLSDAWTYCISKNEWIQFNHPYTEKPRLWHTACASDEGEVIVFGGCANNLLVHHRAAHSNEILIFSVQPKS
# Method: KLHDC2 FP competition binding assay
# Experimental conditions: 15 nM KLHDC2 (residues 1-363), 10 nM fluorescein-labeled diglycine peptide probe, read-out: KLHDC2 binding Human FP: average external IC50
Observation type: IC50

Molecule | IC50
O=C(O)Cn1cc(N2CC[C@@]3(CCCN(c4cccnc4)C3)C2=O)ccc1=O [I-14] | > 5 µM
O=C(O)Cn1cc(NC(=O)Cc2ccccc2)ccc1=O [I-377] | > 5 µM
CS(=O)(=O)c1cccc(-c2cccc(C(=O)Nc3ccc(=O)n(CC(=O)O)c3)c2)c1 [I-194] | > 5 µM
CN(C)C(=O)Cc1ccc(=O)n(CC(=O)O)c1 [I-284] | > 5 µM
CCc1ccccc1C(=O)Nc1ccc(=O)n(CC(=O)O)c1 [I-318] | > 5 µM
O=C(O)Cn1cc(NC(=O)c2ccc(-c3ccccc3Cl)o2)ccc1=O [I-255] | > 5 µM

Just so you know, measured IC50 for COc1ccccc1OCC(=O)Nc1ccc(=O)n(CC(=O)O)c1 [I-273] came out at > 5 µM

Documented IC50 of O=C(O)Cn1cc(N2CCc3ccccc3C2=O)ccc1=O [I-95] : > 5 µM

Short answer for O=C(O)Cn1cc(-c2cccc(N3CCOCC3)c2)ccc1=O [I-322] : IC50 was > 5 µM

Per the records, this molecule ( CCN(CC)c1ccc2cc(C(=O)Nc3ccc(=O)n(CC(=O)O)c3)c(=O)oc2c1 [I-237] ) has IC50 equal to 0.5 to 5 µM

// IC50 lookup, molecule = O=C(O)C1CC(=O)N(CCOc2ccccc2Cl)C1 (stereo not drawn) [I-228] , result: > 5 µM

Reported IC50 of Cc1ccc(F)c(-c2ccc(=O)n(CC(=O)O)c2)c1 [I-343] : > 5 µM

The molecule listed as Cc1sc2c(c1C)C(c1ccc(Cl)cc1)=N[C@@H](CC(=O)NCCCCCCc1ccc(C(=O)Nc3ccc(=O)n(CC(=O)O)c3)cc1-c1cccnc1)c1nnc(C)n1-2 [I-473] has a reported IC50 of < 0.05 µM

Per the records, this molecule ( O=C(O)Cn1cc(NC(=O)c2ccc3ccccc3c2)ccc1=O [I-211] ) has IC50 equal to > 5 µM
